target: Cyclin-dependent kinase 5/CDK5 activator 1 (Homo sapiens, UniProt Q00535); assay: Inhibition of CDK5/P25 GST-fusion protein assessed as substrate histone H1 phosphorylation by scintillation counting
Sequence (Q00535 whole entry, the tested form may be a part): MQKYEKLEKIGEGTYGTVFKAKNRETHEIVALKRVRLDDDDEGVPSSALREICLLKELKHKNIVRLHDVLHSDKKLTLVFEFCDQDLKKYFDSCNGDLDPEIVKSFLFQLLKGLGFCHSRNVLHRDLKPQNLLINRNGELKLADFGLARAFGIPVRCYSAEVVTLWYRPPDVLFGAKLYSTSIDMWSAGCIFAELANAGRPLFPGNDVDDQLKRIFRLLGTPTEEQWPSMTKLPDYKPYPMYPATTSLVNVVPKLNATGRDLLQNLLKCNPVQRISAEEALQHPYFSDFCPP
Sequence (Q15078 whole entry, further chain, the tested form may be a part): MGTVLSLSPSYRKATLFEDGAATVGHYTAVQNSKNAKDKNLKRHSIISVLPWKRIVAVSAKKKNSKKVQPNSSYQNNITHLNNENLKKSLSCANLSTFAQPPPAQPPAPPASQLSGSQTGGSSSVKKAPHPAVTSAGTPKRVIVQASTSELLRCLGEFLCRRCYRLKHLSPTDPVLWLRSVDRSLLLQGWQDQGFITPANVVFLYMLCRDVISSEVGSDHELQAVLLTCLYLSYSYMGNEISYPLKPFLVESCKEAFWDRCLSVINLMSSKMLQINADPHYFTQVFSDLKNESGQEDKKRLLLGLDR
Quantity: IC50

# Compound, Assayed Target, IC50
measured = [
    ("CCC(CO)Oc1cc(NCc2ccccc2)c2ncn(C(C)C)c2c1 (configuration not stated)", "Cyclin-dependent kinase 5/CDK5 activator 1 (Homo sapiens, UniProt Q00535)", "13 µM"),
    ("CCOc1cc(NCc2ccccc2)c2ncn(C(C)C)c2c1", "Cyclin-dependent kinase 5/CDK5 activator 1 (Homo sapiens, UniProt Q00535)", "> 100 µM"),
    ("CC(C)n1cnc2c(NCc3ccccc3)cc(OCCO)cc21", "Cyclin-dependent kinase 5/CDK5 activator 1 (Homo sapiens, UniProt Q00535)", "> 100 µM"),
    ("CCC(CN(C)C)Oc1cc(NCc2ccccc2)c2ncn(C(C)C)c2c1 (configuration not stated)", "Cyclin-dependent kinase 5/CDK5 activator 1 (Homo sapiens, UniProt Q00535)", "> 100 µM"),
    ("CCCOc1cc(NCc2ccccc2)c2ncn(C(C)C)c2c1", "Cyclin-dependent kinase 5/CDK5 activator 1 (Homo sapiens, UniProt Q00535)", "> 100 µM"),
    ("CCC(O)COc1cc(NCc2ccccc2)c2ncn(C(C)C)c2c1 (configuration not stated)", "Cyclin-dependent kinase 5/CDK5 activator 1 (Homo sapiens, UniProt Q00535)", "> 100 µM"),
]

Any idea what IC50 was measured for CC(C)n1cnc2c(NCc3ccccc3)cc(OCC3CCN(C)CC3)cc21 ? > 100 µM

Any idea what IC50 was measured for COCCOc1cc(NCc2ccccc2)c2ncn(C(C)C)c2c1 ? > 100 µM

Any idea what IC50 was measured for CCC(COC)Oc1cc(NCc2ccccc2)c2ncn(C(C)C)c2c1 (configuration not stated) ? > 10 µM

Any idea what IC50 was measured for CCCCOc1cc(NCc2ccccc2)c2ncn(C(C)C)c2c1 ? > 100 µM

Any idea what IC50 was measured for CC(C)n1cnc2c(NCc3ccccc3)cc(OCC3CCNCC3)cc21 ? > 100 µM

Any idea what IC50 was measured for COc1cc(NCc2ccccc2)c2ncn(C(C)C)c2c1 ? > 10 µM

Origin of the recorded values: ChEMBL document CHEMBL1641601
